Assay: Study A: plasma pharmacokinetics of single-dose selumetinib 25 mg alone or co-dosed with itraconazole or fluconazole
Details: human, plasma, oral, AUC (CV%), study A; selumetinib 25 mg + itraconazole; N = 24
Experimental endpoint: AUC (ng·h/mL)
Numbers only here, please. The scale is ng·h/mL.

Quick note, AUC for Cn1cnc2c(F)c(Nc3ccc(Br)cc3Cl)c(C(=O)NOCCO)cc21 landed at 1760

###

Assay: Study A: plasma pharmacokinetics of single-dose selumetinib 25 mg alone or co-dosed with itraconazole or fluconazole
Conditions: human, plasma, oral, AUC, geometric least squares mean (GLSMR line), study A; selumetinib 25 mg + itraconazole; n = 24; linear mixed-effects model
Experimental endpoint: AUC (ng·h/mL)
Supply the numeric figure in ng·h/mL, leaving out any unit text.

// field: AUC; key: Cn1cnc2c(F)c(Nc3ccc(Br)cc3Cl)c(C(=O)NOCCO)cc21 ; value = 1770

###

Assay: Study A: plasma pharmacokinetics of single-dose selumetinib 25 mg alone or co-dosed with itraconazole or fluconazole
Details: human, plasma, oral, C max, geometric least squares mean (GLSMR line), study A; selumetinib 25 mg + itraconazole; n = 24; linear mixed-effects model
Experimental endpoint: Cmax (ng/mL)
Express it in ng/mL; write the number only.

Notebook: Cn1cnc2c(F)c(Nc3ccc(Br)cc3Cl)c(C(=O)NOCCO)cc21 , Cmax read as 484

###

Assay: clinical
Details: human, in vivo, 75 mg
Experimental endpoint: Tmax (h)
Reply numerically in h, unit not repeated.

So, Cn1cnc2c(F)c(Nc3ccc(Br)cc3Cl)c(C(=O)NOCCO)cc21 [Selumetinib] ? Its Tmax was 1.27

###

Experiment: clinical
Conditions: human, in vivo, 75 mg, t 1/2 arithmetic mean (SD)
Experimental endpoint: half-life
Write the quantity with the unit trailing the number.

Consider Cn1cnc2c(F)c(Nc3ccc(Br)cc3Cl)c(C(=O)NOCCO)cc21 . Its measured half-life is 9.27 h

###

Assay: Study A: plasma pharmacokinetics of single-dose selumetinib 25 mg alone or co-dosed with itraconazole or fluconazole
Conditions: human, plasma, oral, 25 mg, AUC, geometric least squares mean (GLSMR line), study A; selumetinib 25 mg alone; n = 26; linear mixed-effects model
Experimental endpoint: AUC (ng·h/mL)
Field: numeric (ng·h/mL). Do not append units.

Summary for this compound, Cn1cnc2c(F)c(Nc3ccc(Br)cc3Cl)c(C(=O)NOCCO)cc21 : AUC is 1180

###

Experiment: Study A: plasma pharmacokinetics of single-dose selumetinib 25 mg alone or co-dosed with itraconazole or fluconazole
Conditions: human, plasma, oral, C max, geometric least squares mean (GLSMR line), study A; selumetinib 25 mg + fluconazole; n = 22; linear mixed-effects model
Experimental endpoint: Cmax

Entry Cn1cnc2c(F)c(Nc3ccc(Br)cc3Cl)c(C(=O)NOCCO)cc21 ; Cmax = 513 ng/mL

###

Experiment: Study A: plasma pharmacokinetics of single-dose selumetinib 25 mg alone or co-dosed with itraconazole or fluconazole
Settings: human, plasma, oral, AUC, geometric least squares mean (GLSMR line), study A; selumetinib 25 mg + fluconazole; n = 22; linear mixed-effects model
Experimental endpoint: AUC (ng·h/mL)
State just the number; it will be interpreted in ng·h/mL.

Documented AUC of Cn1cnc2c(F)c(Nc3ccc(Br)cc3Cl)c(C(=O)NOCCO)cc21 : 1820

###

Experiment: Study A: plasma pharmacokinetics of single-dose selumetinib 25 mg alone or co-dosed with itraconazole or fluconazole
Conditions: human, plasma, oral, mean t 1/2 prolonged by, co-dosed with fluconazole vs selumetinib alone
Experimental endpoint: half-life

So, Cn1cnc2c(F)c(Nc3ccc(Br)cc3Cl)c(C(=O)NOCCO)cc21 [Selumetinib] ? Its half-life was ~1.5 h

###

Assay: Study A: plasma pharmacokinetics of single-dose selumetinib 25 mg alone or co-dosed with itraconazole or fluconazole
Settings: human, plasma, oral, C max (CV%), study A; selumetinib 25 mg + fluconazole; N = 22
Experimental endpoint: Cmax (ng/mL)
Answer format: numeric, ng/mL implied, no suffix.

Quick note, Cmax for Cn1cnc2c(F)c(Nc3ccc(Br)cc3Cl)c(C(=O)NOCCO)cc21 [Selumetinib] landed at 509

###

Assay: clinical
Conditions: human, in vivo, 75 mg, AUC, geometric least squares mean (GLSMR line)
Experimental endpoint: AUC
Provide a numeric answer, followed by its unit.

Noted for Cn1cnc2c(F)c(Nc3ccc(Br)cc3Cl)c(C(=O)NOCCO)cc21 : its AUC reads 4480 ng·h/mL

###

Assay: Study A: plasma pharmacokinetics of single-dose selumetinib 25 mg alone or co-dosed with itraconazole or fluconazole
Settings: human, plasma, oral, 25 mg, t 1/2 arithmetic mean (SD), study A; selumetinib 25 mg alone; N = 26
Experimental endpoint: half-life (h)
Express it in h; write the number only.

Summary for this compound, Cn1cnc2c(F)c(Nc3ccc(Br)cc3Cl)c(C(=O)NOCCO)cc21 : half-life is 8.24

###

Experiment: Study B: plasma pharmacokinetics of single-dose selumetinib 75 mg alone or co-dosed with rifampicin
Settings: human, in vivo
Experimental endpoint: AUC (µg·h/mL)
Report only the number, with the unit µg·h/mL understood.

Entry under test: Cn1cnc2c(F)c(Nc3ccc(Br)cc3Cl)c(C(=O)NOCCO)cc21 [Selumetinib] . Its AUC was 4.48

###

Test: Study A: plasma pharmacokinetics of single-dose selumetinib 25 mg alone or co-dosed with itraconazole or fluconazole
Settings: human, plasma, oral, mean terminal half-life (t 1/2) prolonged by, co-dosed with itraconazole vs selumetinib alone
Experimental endpoint: half-life

Notebook: Cn1cnc2c(F)c(Nc3ccc(Br)cc3Cl)c(C(=O)NOCCO)cc21 [Selumetinib] , half-life read as ~6 h

###

Assay: Study A: plasma pharmacokinetics of single-dose selumetinib 25 mg alone or co-dosed with itraconazole or fluconazole
Conditions: human, plasma, oral, AUC (CV%), study A; selumetinib 25 mg + fluconazole; N = 22
Experimental endpoint: AUC (ng·h/mL)
Respond with the bare value in ng·h/mL.

The reported AUC of the molecule Cn1cnc2c(F)c(Nc3ccc(Br)cc3Cl)c(C(=O)NOCCO)cc21 [Selumetinib] was 1770

###

Experiment: Study A: plasma pharmacokinetics of single-dose selumetinib 25 mg alone or co-dosed with itraconazole or fluconazole
Details: human, plasma, oral, t 1/2 arithmetic mean (SD), study A; selumetinib 25 mg + fluconazole; N = 22
Experimental endpoint: half-life (h)
# number only, unit h dropped from output

// sample Cn1cnc2c(F)c(Nc3ccc(Br)cc3Cl)c(C(=O)NOCCO)cc21 , its half-life was 9.75

###

Experiment: Study A: plasma pharmacokinetics of single-dose selumetinib 25 mg alone or co-dosed with itraconazole or fluconazole
Settings: human, plasma, oral, 25 mg, C max (CV%), study A; selumetinib 25 mg alone; N = 26
Experimental endpoint: Cmax (ng/mL)
Field: numeric (ng/mL). Do not append units.

The recorded Cmax for Cn1cnc2c(F)c(Nc3ccc(Br)cc3Cl)c(C(=O)NOCCO)cc21 [Selumetinib] is 409
